# subjectOfTest: adenosine A2B receptor (Homo sapiens (Human), UniProt P29275)
# Sequence (P29275 whole entry): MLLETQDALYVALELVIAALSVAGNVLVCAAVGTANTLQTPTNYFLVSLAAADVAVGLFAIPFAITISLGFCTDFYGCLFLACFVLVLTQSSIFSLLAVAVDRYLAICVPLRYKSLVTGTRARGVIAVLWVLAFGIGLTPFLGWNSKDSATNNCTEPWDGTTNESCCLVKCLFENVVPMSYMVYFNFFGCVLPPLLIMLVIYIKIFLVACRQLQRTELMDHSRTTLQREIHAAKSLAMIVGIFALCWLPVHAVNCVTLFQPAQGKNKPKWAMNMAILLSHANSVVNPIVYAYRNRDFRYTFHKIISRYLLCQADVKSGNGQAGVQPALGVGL
# experimentalDetails: Adenosine receptor activity assay (Table 1), A2B activity
# Type: biochemical
# appliedConditions: read-out: Ave A2B cAMP IC50
pIC50: −log10 of the molar value.
parameterMeasured: pIC50

compound	result
C[C@H](Nc1nc(C(=O)NCCc2cccc(O)c2)c2sccc2n1)c1ccccn1 [Example Z428]	7.30 to 8.00
Cc1cc2nc(N[C@@H](C)c3cccnc3)nc(C(=O)N3CC(CN)C3)c2s1 [Example Z499]	< 6.30
C[C@H](Nc1nc(C(=O)NCCC2CCN(C(=O)OC(C)(C)C)C2)c2sccc2n1)c1cncc(F)c1 (stereo partly drawn) [Example Z365]	7.30 to 8.00
C[C@H](Nc1nc(C(=O)N2CC[C@@H](O)C2)c2sccc2n1)c1cncc(Cl)c1 [Example Z237]	7.30 to 8.00
CC(=O)NC1CN(C(=O)c2nc(N[C@@H](C)c3ccccn3)nc3ccsc23)C1 [Example Z533]	6.30 to 7.00
C[C@H](Nc1nc(C(=O)N2CCC2)c2sccc2n1)c1ccccn1 [Example Z90]	> 8.00
C[C@H](Nc1nc(C(=O)N2CC[C@H](N)C2)c2sccc2n1)c1cccnc1 [Example Z367]	< 6.30
C[C@H](Nc1nc(C(=O)N2CC[C@H](F)C2)c2sc(N)cc2n1)c1cccnc1 [Example Z204]	7.30 to 8.00
COc1ccc(CCCNC(=O)c2nc(N[C@@H](C)c3cncc(F)c3)nc3ccsc23)cc1 [Example Z422]	7.30 to 8.00
C[C@H](Nc1nc(C(=O)NC(C)(C)C)c2sccc2n1)c1ccccn1 [Example Z201]	7.30 to 8.00
O=C(c1nc(NCc2cc(F)cc(F)c2)nc2ccsc12)N1CCC1 [Example Z168]	7.30 to 8.00
COc1ccc(CNC(=O)c2nc(NCc3cncc(F)c3)nc3ccsc23)cn1 [Example Z67]	7.30 to 8.00
C[C@H](Nc1nc(C(=O)NC2COC2)c2sccc2n1)c1ccccn1 [Example Z194]	7.30 to 8.00
COC1CN(C(=O)c2nc(N[C@@H](C)c3cncc(Cl)c3)nc3ccsc23)C1 [Example Z233]	> 8.00
C[C@H](Nc1nc(C(=O)N2CCCC2)c2sccc2n1)c1cncc(Cl)c1 [Example Z231]	> 8.00
COc1cncc(CNc2nc(C(=O)N3CCCC3)c3sccc3n2)c1 [Example Z114]	6.30 to 7.00
C[C@@H]1CCN(C(=O)c2nc(N[C@@H](C)c3ccccn3)nc3ccsc23)C1 [Example Z86]	7.30 to 8.00
C[C@H](O)CNC(=O)c1nc(N[C@@H](C)c2cncc(Cl)c2)nc2ccsc12 [Example Z292]	7.30 to 8.00
C[C@H](Nc1nc(C(=O)N2CC[C@H](NC(=O)OC(C)(C)C)C2)c2sccc2n1)c1cccnc1 [Example Z314]	6.30 to 7.00
C[C@H](Nc1nc(C(=O)N2CC(C(=O)OC(C)(C)C)C2)c2sccc2n1)c1cncc(F)c1 [Example Z572]	7.30 to 8.00
C[C@H](Nc1nc(C(=O)Nc2ccccc2)c2sccc2n1)c1ccccn1 [Example Z303]	7.00 to 7.30
O=C(c1nc(NCc2cccc(Cl)c2)nc2ccsc12)N1CCC1 [Example Z121]	7.30 to 8.00
CC(=O)N(C)C1CN(C(=O)c2nc(N[C@@H](C)c3cncc(F)c3)nc3cc(C)sc23)C1 [Example Z509]	> 8.00
COCC(Nc1nc(C(=O)NC2COC2)c2sccc2n1)c1cccnc1 (stereo not drawn) [Example Z216]	7.30 to 8.00
Cc1cc2nc(N[C@@H](C)c3ccccn3)nc(C(=O)N3CC(CNC(=O)C(C)(C)C)C3)c2s1 [Example Z527]	7.00 to 7.30
COc1cccc(CNC(=O)c2nc(N[C@@H](C)c3ccccn3)nc3c(C)csc23)n1 [Example Z450]	7.30 to 8.00
CCNC(=O)c1nc(N[C@@H](C)c2ccccn2)nc2ccsc12 [Example Z111]	> 8.00
C[C@H](Nc1nc(C(=O)NCc2cncc(C#N)c2)c2sccc2n1)c1ccccn1 [Example Z102]	6.30 to 7.00
CC(C)(C)OC(=O)N[C@@H]1CCN(C(=O)c2nc(NCc3cc(F)cc(F)c3)nc3ccsc23)C1 [Example Z167]	7.30 to 8.00
COc1ccc([C@H](C)Nc2nc(C(=O)N3CC(NC(C)=O)C3)c3sc(C)cc3n2)cc1 [Example Z556]	6.30 to 7.00
C[C@H](Nc1nc(C(=O)N[C@@H]2CCN(C(=O)OC(C)(C)C)C2)c2sccc2n1)c1ccccn1 [Example Z326]	7.00 to 7.30
Cc1cc2nc(N[C@@H](C)c3cncc(F)c3)nc(C(=O)NCC[C@H]3CCNC3)c2s1 [Example Z463]	7.30 to 8.00
Cc1cc2nc(N[C@@H](C)c3cncc(F)c3)nc(C(=O)NCCN3CCOCC3)c2s1 [Example Z372]	7.00 to 7.30
